Tested on: F. magna
method: Broth microdilution MIC
Format: cell-based
experimentalSetup: Finegoldia magna, ATCC15794; F. magna ATCC 15794
Give measured MIC for each item. Keep answers brief.
// units = µg/mL; emit number, no label

q: # lookup: MIC of CCC[C@@H]1C[C@@H](C(=O)N[C@@H]([C@H]2O[C@H](SC)[C@H](O)[C@@H](O)[C@H]2O)[C@H](C)Cl)N(C)C1 [Clindamycin, clindamycin]
a: 0.5

q: # lookup: MIC of CC[C@H]1OC(=O)[C@H](C)[C@@H](O[C@H]2C[C@@](C)(OC)[C@@H](O)[C@H](C)O2)[C@H](C)[C@@H](O[C@@H]2O[C@H](C)C[C@H](N(C)C)[C@H]2O)[C@](C)(O)C[C@@H](C)C(=O)[C@H](C)[C@@H](O)[C@]1(C)O [ERY, erythromycin]
a: 4
